Ki reference
Tested on: Human α2δ-1 subunit of Cav2.2 calcium channel (Homo sapiens, UniProt P54289)
Sequence (P54289 25-1103): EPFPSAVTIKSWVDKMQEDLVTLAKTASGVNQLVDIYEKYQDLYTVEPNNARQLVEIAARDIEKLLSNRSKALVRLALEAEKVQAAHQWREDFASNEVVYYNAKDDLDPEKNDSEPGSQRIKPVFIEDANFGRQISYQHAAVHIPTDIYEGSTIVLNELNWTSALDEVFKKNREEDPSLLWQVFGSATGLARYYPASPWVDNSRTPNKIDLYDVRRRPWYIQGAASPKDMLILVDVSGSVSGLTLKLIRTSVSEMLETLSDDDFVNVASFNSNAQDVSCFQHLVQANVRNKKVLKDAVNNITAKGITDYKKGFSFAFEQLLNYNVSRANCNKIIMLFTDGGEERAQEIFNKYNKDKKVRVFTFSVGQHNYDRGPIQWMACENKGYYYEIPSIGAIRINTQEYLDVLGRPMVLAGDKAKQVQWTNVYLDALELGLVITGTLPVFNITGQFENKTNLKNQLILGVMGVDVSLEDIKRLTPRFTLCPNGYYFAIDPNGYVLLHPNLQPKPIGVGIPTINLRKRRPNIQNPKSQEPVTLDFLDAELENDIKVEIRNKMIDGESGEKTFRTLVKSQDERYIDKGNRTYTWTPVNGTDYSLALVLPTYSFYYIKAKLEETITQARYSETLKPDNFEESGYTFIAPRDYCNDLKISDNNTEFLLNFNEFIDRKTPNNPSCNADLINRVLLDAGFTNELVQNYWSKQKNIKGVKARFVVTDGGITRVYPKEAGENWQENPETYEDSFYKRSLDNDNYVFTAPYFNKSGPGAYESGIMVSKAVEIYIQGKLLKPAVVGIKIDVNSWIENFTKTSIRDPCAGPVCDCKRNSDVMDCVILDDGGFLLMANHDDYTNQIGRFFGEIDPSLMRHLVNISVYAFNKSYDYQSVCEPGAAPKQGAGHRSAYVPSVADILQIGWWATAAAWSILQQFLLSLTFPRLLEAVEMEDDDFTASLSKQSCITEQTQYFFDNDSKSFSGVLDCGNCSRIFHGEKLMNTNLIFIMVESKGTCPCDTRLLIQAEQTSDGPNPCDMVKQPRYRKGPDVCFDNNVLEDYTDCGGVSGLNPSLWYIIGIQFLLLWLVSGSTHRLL
Assay remarks: Binding assay to human α2δ-1 subunit of Cav2.2 calcium channel ([3H]-Gabapentin)
Reported conditions: human α2δ-1 enriched membranes, [3H]-Gabapentin 15 nM; read-out: Ki(nM) alpha2delta Hum

| Molecule | Ki |
| --- | --- |
| CNCC[C@H](Oc1cnc(CN2CCN(C)c3cnc(OC)cc3C2=O)c(F)c1)c1cccc(F)c1 [Example 6] | < 100 nM |
| CNCC[C@H](Oc1cnc(CN2CCN(C)c3ncccc3C2=O)c(F)c1)c1cccc(F)c1 [Example 7] | 100 to 500 nM |
| CNCC[C@H](Oc1cnc(CN2CCN(C)c3nc(N)ccc3C2=O)c(F)c1)c1cccc(F)c1 [Example 3] | < 100 nM |
| CCNc1ccc2c(n1)N(C)CCN(Cc1ncc(O[C@@H](CCNC)c3cccc(F)c3)cc1F)C2=O [Example 4] | < 100 nM |
| CNCC[C@H](Oc1cnc(CN2CCN(C)c3ncccc3C2=O)c(Cl)c1)c1cccc(F)c1 [Example 5] | < 100 nM |
| CNCC[C@H](Oc1cnc(CN2CCN(C)c3ncccc3C2=O)c(F)c1)c1cccs1 [Example 8] | 100 to 500 nM |
| CNCC[C@H](Oc1cnc(CN2CCN(C)c3ncccc3C2=O)c(F)c1)c1ccccc1 [Example 1] | < 100 nM |
| CNCC[C@H](Oc1cnc(CN2CCN(C)c3ncc(F)cc3C2=O)c(F)c1)c1cccc(F)c1 [Example 2] | 100 to 500 nM |

Reference for the values: patent US20210395249A1
